Target desc: HDAC6 enzyme (Homo sapiens, UniProt Q9UBN7)
Construct: transducing full length HDAC6 gene into Sf-9 insect cells; GST; purchased SignalChem; host or cells: Sf-9 insect cells
Sequence (Q9UBN7 whole entry): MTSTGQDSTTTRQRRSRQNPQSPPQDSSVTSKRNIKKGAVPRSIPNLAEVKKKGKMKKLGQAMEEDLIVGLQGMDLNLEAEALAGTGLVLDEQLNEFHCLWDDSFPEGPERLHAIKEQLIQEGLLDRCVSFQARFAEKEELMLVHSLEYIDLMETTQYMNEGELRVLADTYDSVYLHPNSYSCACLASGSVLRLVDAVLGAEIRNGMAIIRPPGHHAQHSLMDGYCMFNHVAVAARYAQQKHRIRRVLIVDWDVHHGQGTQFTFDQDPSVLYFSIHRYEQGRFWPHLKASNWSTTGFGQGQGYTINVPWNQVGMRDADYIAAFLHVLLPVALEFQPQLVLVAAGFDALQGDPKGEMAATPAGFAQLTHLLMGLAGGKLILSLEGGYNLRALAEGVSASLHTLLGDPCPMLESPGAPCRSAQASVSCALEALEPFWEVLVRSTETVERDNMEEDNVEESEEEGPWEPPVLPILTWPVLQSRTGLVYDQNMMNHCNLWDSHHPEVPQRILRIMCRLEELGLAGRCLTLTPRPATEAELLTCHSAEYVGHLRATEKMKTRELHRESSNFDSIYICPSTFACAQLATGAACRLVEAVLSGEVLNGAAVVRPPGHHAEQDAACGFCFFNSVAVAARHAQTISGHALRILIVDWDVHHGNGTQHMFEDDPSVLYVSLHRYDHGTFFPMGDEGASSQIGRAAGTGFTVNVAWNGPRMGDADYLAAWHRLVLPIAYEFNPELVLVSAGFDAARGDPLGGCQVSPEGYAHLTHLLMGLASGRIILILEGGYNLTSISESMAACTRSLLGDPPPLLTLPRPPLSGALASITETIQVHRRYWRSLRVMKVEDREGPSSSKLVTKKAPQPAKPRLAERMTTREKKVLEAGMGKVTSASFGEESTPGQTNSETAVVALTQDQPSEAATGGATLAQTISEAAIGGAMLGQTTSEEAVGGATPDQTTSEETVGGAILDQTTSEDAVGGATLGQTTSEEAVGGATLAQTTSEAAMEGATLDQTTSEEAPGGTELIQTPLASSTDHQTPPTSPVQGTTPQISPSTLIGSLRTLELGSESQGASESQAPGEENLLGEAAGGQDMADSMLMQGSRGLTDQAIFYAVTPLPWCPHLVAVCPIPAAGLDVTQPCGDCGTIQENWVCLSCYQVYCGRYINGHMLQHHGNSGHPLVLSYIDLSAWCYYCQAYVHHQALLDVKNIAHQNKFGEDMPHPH
Assay comment: HDAC6 enzyme inhibitory activity (HDAC-Glo I/II Assay kit)
Assay type: biochemical
Condition details: 10 μM; wells without enzyme = 100% inhibition; read-out: HDAC6 inhibitory rate (%) (10 μM)
Readout type: inhibition at 10 µM
Phrase the answer as number then unit, nothing more needed.

Documented inhibition at 10 µM of COCCOc1ccc(-c2ccccc2N2Cc3ccc(-c4nnc(C(F)F)o4)cc3C2=O)cc1 : 98%

Documented inhibition at 10 µM of O=C1c2cc(-c3nnc(C(F)F)o3)ccc2CN1c1ccccc1-c1ccc(F)cc1F : 91%

Documented inhibition at 10 µM of O=C1c2cc(-c3nnc(C(F)F)o3)ccc2CN1[C@@H]1CCCC[C@H]1NCC(F)(F)F : 101%

Documented inhibition at 10 µM of Cn1cc(C2=CCOCC2)c(N2Cc3ccc(-c4nnc(C(F)F)o4)cc3C2=O)n1 : 100%

Documented inhibition at 10 µM of O=C1c2cc(-c3nnc(C(F)F)o3)cnc2CN1[C@@H]1CCC(F)(F)C[C@H]1NC(=O)C(F)(F)C(F)F : 99%

Documented inhibition at 10 µM of O=C1c2cc(-c3nnc(C(F)F)o3)cnc2CN1Cc1ccc(F)cc1 : 98%

Documented inhibition at 10 µM of CCCCO[C@H]1CC[C@H](N2Cc3ccc(-c4nnc(C(F)F)o4)cc3C2=O)CC1 : 96%

Documented inhibition at 10 µM of N[C@H]1[C@H](N2Cc3ccc(-c4nnc(C(F)F)o4)cc3C2=O)CCCC1(F)F : 95%
